quantity_name: melting point

Example results:
| compound | melting point |
| --- | --- |
| CCOCOC1CCC2(C)C(=CCC3C2CCC2(C)C3CC3OC4(CCC(C)CO4)C(C)C32)C1 (stereo unspecified) | 125 to 127 °C |
| CCCNC(=O)C(C)(C)Oc1ccc(-c2ccc(N3CCCCC3)cc2)cc1 | 132 to 134 °C |
| O=c1cc(-c2ccccc2)oc2ccc(OCCCCCCCCN3CCC(O)CC3)cc12 | 57 to 58 °C |
| COc1cc(-c2nnc(C)s2)cc2oc(=O)c(Cl)c(C)c12 | 176 to 177 °C |
| CCCOc1nsc(N)c1C#N | 122 to 125 °C |
| COc1ccc2[nH]cc(/C(C#N)=C/c3ccn(C)n3)c2c1 | 178 °C |
| O=C1C=CC(O)(C(F)(F)F)C=C1 | 84 to 86 °C |
| Cn1cc(CO)c(=O)c2ccc(F)cc21 | 219 to 222 °C |

// returns reported melting point for input O=c1cc(-c2ccncc2)nc2n1CC(O)CN2 (stereo unspecified)
305 to 307 °C

// returns reported melting point for input COC(=O)c1ccc(-c2csc(-c3ccc4c(c3)C(C)(C)CCC4(C)C)c2)cc1
108 to 110 °C

// returns reported melting point for input c1ccc2c(c1)CCONC2
190 to 192 °C
